- TESTED ON: PA/PB1 (Influenza A virus (A/Puerto Rico/8/1934(H1N1)), UniProt P03431+P03433)
- EXPERIMENT SUMMARY: Inhibition of Influenza A virus 6His-tagged PA (239 to 716 residues)/GST-tagged PB1 (1 to 25 residues) protein-protein interaction expressed in Escherichia coli measured after overnight incubation by ELISA
READOUT NAME: IC50 (µM)
Unit µM implied. Number only.

Take a look at these entries with their results.
CC(C)(C)NC(=O)c1c(NC(=O)c2ccccc2O)sc2c1CCCCC2: 156
O=C(Nc1sc2c(c1C(=O)Nc1ccc(Cl)cc1)CCCCC2)c1ccccc1O: 18
O=C(Nc1sc2c(c1C(=O)Nc1ccccc1)CCCCC2)c1ccccc1O: 58
COc1ccccc1NC(=O)c1c(NC(=O)c2ccc(Cl)cc2)sc2c1CCCCC2: 45

Supply recorded IC50 for "O=C(Nc1sc2c(c1C(=O)Nc1ccccc1O)CCCCC2)c1ccc(Cl)cc1" here.
26
